Hello, the source for this data is the supplement of paper PMC8253809, in case you need it.

Test system: DIPGX37 (H3.3 K27M diffuse intrinsic pontine glioma line)
PROTOCOL: growth inhibition (% activity, log2 RLU normalised to DMSO / staurosporine); higher = more growth inhibition
COND: 33 µM
REPORTED_METRIC: growth inhibition (%)

>>> print(df.to_string())
                                    compound  target_desc  measured_number
 0                  N=S(=O)(O)Cc1noc2ccccc12      DIPGX37            -1.83
 1  CCCCCCCCCCCCCCCC[N+](C)(C)CCN(Cc1ccc(OC)cc1)c1ncccn1      DIPGX37             55.6
 2  Nc1nc(CC(=O)Nc2ccc(CCNC[C@H](O)c3ccccc3)cc2)cs1      DIPGX37            0.899
 3               O=P(O)(O)C(Cl)(Cl)P(=O)(O)O      DIPGX37           -0.716
 4   Cn1cnc([N+](=O)[O-])c1Sc1ncnc2[nH]cnc12      DIPGX37             9.81
 5  CC(=O)O[C@]1(C(C)=O)CC[C@H]2[C@@H]3C[C@H](C)C4=CC(=O)C=C[C@]4(C)[C@@]3(F)[C@@H](O)C[C@@]21C      DIPGX37             3.28
 6  OCCN(CCO)c1nc(N2CCCCC2)c2nc(N(CCO)CCO)nc(N3CCCCC3)c2n1      DIPGX37           -0.429
 7  COc1cc(C)c(/C=C/C(C)=C/C=C/C(C)=C/C(=O)O)c(C)c1C      DIPGX37            -2.81
 8  N#C[C@@H]1C[C@@H]2C[C@@H]2N1C(=O)[C@@H](N)C12CC3CC(CC(O)(C3)C1)C2      DIPGX37             1.41
 9  CCCCNc1cc(C(=O)O)cc(S(N)(=O)=O)c1Oc1ccccc1      DIPGX37            -2.83
10  COc1cc2c(cc1OC)C(=O)C(CC1CCN(Cc3ccccc3)CC1)C2 (configuration not stated)      DIPGX37             -6.1
11                            O=C(O)c1ccccc1      DIPGX37             1.08
12  C[C@H](N[C@@H](CCc1ccccc1)C(=O)O)C(=O)N1CCC[C@H]1C(=O)O      DIPGX37            -2.46
13              NC(=O)c1cn(Cc2c(F)cccc2F)nn1      DIPGX37            -0.27
14         Cn1c(=O)c2c(ncn2CC2OCCO2)n(C)c1=O      DIPGX37             3.27
15            Cc1[nH]c(=O)c(C#N)cc1-c1ccncc1      DIPGX37              4.4
16                             NCCNCCNCCNCCN      DIPGX37             3.32

====

Tested on: HNSC
PROTOCOL: growth inhibition (% activity, log2 RLU normalised to DMSO / staurosporine); higher = more growth inhibition
COND: 33 µM
Measured growth inhibition of individual entries

COMPOUND	growth inhibition, %
CCOC(=O)[C@H](CCc1ccccc1)N[C@@H](C)C(=O)N1C(=O)N(C)C[C@H]1C(=O)O	1.56
CN1CCN(c2c(F)cc3c(=O)c(C(=O)O)cn4c3c2OCN4C)CC1	2.71
COc1cc(C(C)=O)ccc1OCCCN1CCC(c2noc3cc(F)ccc23)CC1	0.367
Cc1c(-c2ccc(O)cc2)n(Cc2ccc(OCCN3CCCCCC3)cc2)c2ccc(O)cc12	26.1
O=c1oc2c(O)c(O)cc3c(=O)oc4c(O)c(O)cc1c4c23	-1.26
O=C(O)c1cc(=O)c2ccccc2o1	-0.975
CO[C@@]1(NC(=O)C(C(=O)O)c2ccc(O)cc2)C(=O)N2C(C(=O)O)=C(CSc3nnnn3C)CO[C@@H]21 (stereo partly specified)	-3.08
NC(CO)C(=O)NNCc1ccc(O)c(O)c1O (stereo unspecified)	-2.22
NC(=O)N/N=C/c1ccc([N+](=O)[O-])o1	2.46
CCC(C)C1OC2(CCC1C)CC1CC(CC=C(C)C(OC3CC(OC)C(OC4CC(OC)C(O)C(C)O4)C(C)O3)C(C)C=CC=C3COC4C(O)C(C)=CC(C(=O)O1)C34O)O2 (stereo unspecified)	27.4
CCCCCCCCCC(=O)N[C@@H](Cc1c[nH]c2ccccc12)C(=O)N[C@@H](CC(N)=O)C(=O)N[C@@H](CC(=O)O)C(=O)N[C@@H]1C(=O)NCC(=O)N[C@@H](CCCN)C(=O)N[C@@H](CC(=O)O)C(=O)N[C@H](C)C(=O)N[C@@H](CC(=O)O)C(=O)NCC(=O)N[C@H](CO)C(=O)N[C@@H]([C@H](C)CC(=O)O)C(=O)N[C@@H](CC(=O)c2ccccc2N)C(=O)O[C@@H]1C	-6.45
CN(C)CCN(Cc1cccs1)c1ccccn1	2.78
N=C(N)NS(=O)(=O)c1ccc(N)cc1	0.257
Cc1cnc(C(=O)O)c[n+]1[O-]	3.09
Cc1ccc(S(=O)(=O)NC(=O)NN2CC3CCCC3C2)cc1 (stereo unspecified)	35.3
CCCCCCCCCCCCCCCCCCCCCCO	1.03
O=c1[nH]c(=O)n(C2CCCO2)cc1F (stereo unspecified)	-0.796
CC(C)(Sc1cc(C(C)(C)C)c(O)c(C(C)(C)C)c1)Sc1cc(C(C)(C)C)c(O)c(C(C)(C)C)c1	1.54
CN(C/C=C/c1ccccc1)Cc1cccc2ccccc12	-1.49
N=C(N)NC(=N)NCCc1ccccc1	13
CCOc1cc(CC(=O)N[C@@H](CC(C)C)c2ccccc2N2CCCCC2)ccc1C(=O)O	-2.28
